The reported measurements were obtained from ChEMBL document CHEMBL4622851.

Assay: Inhibition of Leishmania mexicana rCPB3.0 using Z-FR-AMC as substrate by spectrofluorometric analysis
quantity.measured: IC50 (µM)
# output: bare number, implied unit µM

Which value of IC50 has been reported for CCOC(=O)c1cc([Se]c2ccccc2)c2ccccc2n1 in the records? 57.5

Param item = COc1ccc2nc(-c3c(C)cccc3C)cc([Se]c3ccccc3)c2c1 ; retrieve measured IC50. 7.44

Please report the recorded IC50 for CCOC(=O)c1cc([Se]c2ccc3cc(OC)ccc3c2)c2cc(Cl)ccc2n1 . 6.35

Would you kindly share the measured IC50 for COc1ccc([Se]c2cc(-c3ccc(O)cc3)nc3ccc(OC)cc23)cc1 ? 5.78

---

Experiment: Inhibition of Leishmania mexicana rCPB3.0 H84Y mutant assessed as inhibition constant using Z-FR-AMC as substrate preincubated for 10 mins followed by substrate addition by Lineweaver-Burk double reciprocal plot analysis
quantity.measured: pKi
Scale: pKi equals -log10([C]), with [C] in mol/L.

For COc1ccc([Se]c2cc(-c3ccc(O)cc3)nc3ccc(OC)cc23)cc1 , what is its reported pKi? 4.74

---

Target: Cathepsin B (Homo sapiens, UniProt P07858)
Test: Inhibition of cathepsin B (unknown origin) using Z-FR-AMC as substrate by spectrofluorometric analysis
Conditions: read-out: IC50
quantity.measured: pIC50
# pIC50 is unitless: minus log10 of the molar concentration; print number only

API: value(readout=pIC50, system=Cathepsin B (Homo sapiens, UniProt P07858)) for record CCCCC#Cc1cc(C(=O)OCC)nc2ccc(OC)cc12 5.16

---

Target or system UniProtKB P36400: recorded IC50 listed per item.
Response body: numeric value in µM, unit text excluded.

What does the record list as IC50 for COc1ccc([Se]c2cc(-c3ccc(O)cc3)nc3ccc(OC)cc23)cc1 ? 3.6

IC50 lookup needed for COc1ccc2nc(-c3c(C)cccc3C)cc([Se]c3ccccc3)c2c1 , thanks. 12.9

Tell me the measured IC50 of CCOC(=O)c1cc([Se]c2ccccc2)c2ccccc2n1 , please. 54

---

Biological target: Cysteine proteinase B (Leishmania mexicana)
Sequence (P36400 whole entry): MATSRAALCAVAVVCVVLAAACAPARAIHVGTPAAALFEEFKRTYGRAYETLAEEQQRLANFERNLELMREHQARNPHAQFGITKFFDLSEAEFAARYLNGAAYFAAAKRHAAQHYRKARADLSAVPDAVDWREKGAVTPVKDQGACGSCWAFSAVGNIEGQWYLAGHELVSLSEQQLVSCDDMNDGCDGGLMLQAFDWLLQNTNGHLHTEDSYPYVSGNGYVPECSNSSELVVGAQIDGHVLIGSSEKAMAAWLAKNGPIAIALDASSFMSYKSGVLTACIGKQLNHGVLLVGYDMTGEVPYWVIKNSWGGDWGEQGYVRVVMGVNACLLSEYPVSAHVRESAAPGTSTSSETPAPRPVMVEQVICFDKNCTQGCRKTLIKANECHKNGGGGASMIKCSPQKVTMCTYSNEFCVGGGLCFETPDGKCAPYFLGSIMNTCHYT
quantity.measured: Ki (µM)
Expressed in µM, but write only the number.

What value of measured Ki is listed for COc1ccc([Se]c2cc(-c3ccc(O)cc3)nc3ccc(OC)cc23)cc1 ? 21.7
